Provide the recorded relative viability for the entries that follow.
test system: NCI-H1395; assay: relative viability (nuclei count vs DMSO), 5 days (fraction); higher = more cells survive; conditions: first compound 0.01 µM
Just the number, please, no unit attached.

query: Need relative viability, item O=c1cc(N2CCOCC2)oc2c(-c3cccc4c3sc3ccccc34)cccc12 + CCNC(=O)c1noc(-c2cc(C(C)C)c(O)cc2O)c1-c1ccc(CN2CCOCC2)cc1 [Luminespib] (partner 0.01 µM)
result: 0.726

query: // lookup relative viability for CCN(CC)CCCCNc1ncc2cc(-c3cc(OC)cc(OC)c3)c(NC(=O)NC(C)(C)C)nc2n1 + CC(=O)c1c(C)c2cnc(Nc3ccc(N4CCNCC4)cn3)nc2n(C2CCCC2)c1=O [Palbociclib] (partner 0.5 µM)
result: 0.637

query: Name the recorded relative viability for O=c1cc(N2CCOCC2)oc2c(-c3cccc4c3sc3ccccc34)cccc12 + COc1cccc2cc(-c3nc([C@H]4CC[C@H](C(=O)O)CC4)n4ncnc(N)c34)[nH]c12 [OSI-027] (partner 0.5 µM) .
result: 0.574
